This collection of values is drawn from patent US10793563B2.

IC50 overview
systemUnderTest: intracellular GCN2 (phosphorylation of the GCN2 substrate eIF2α) (Homo sapiens (Human))
assayProtocol: GCN2 Cellular Inhibition Assay (AlphaScreen SureFire P-eIF2α Ser51, borrelidin-treated U2OS cells)
Format: cell-based
conditionNotes: GCN2 Biomarker (IC50), 10 μM borrelidin, 1 h, phosphorylated eIF2α Ser51
reportedProperty: IC50

O=C(Nc1cn[nH]c1)[C@H]1CCCN(c2ccnc(-c3cnc4cc(F)c(Cl)cn34)n2)C1 [I-58] = 500 to 5000 nM
Cc1noc([C@H]2CN(c3ccnc(-c4cnc5cc(F)c(Cl)cn45)n3)C[C@@H](C)O2)n1 (relative stereo) [I-56] = 500 to 5000 nM
Cc1noc([C@H]2CN(c3ccnc(-c4cnc5ccc(Cl)cn45)n3)C[C@@H](C)O2)n1 [I-54] = 500 to 5000 nM

###

systemUnderTest: intracellular GCN2 (phosphorylation of the GCN2 substrate eIF2α) (Homo sapiens (Human), UniProt Q9P2K8)
Sequence (Q9P2K8 whole entry): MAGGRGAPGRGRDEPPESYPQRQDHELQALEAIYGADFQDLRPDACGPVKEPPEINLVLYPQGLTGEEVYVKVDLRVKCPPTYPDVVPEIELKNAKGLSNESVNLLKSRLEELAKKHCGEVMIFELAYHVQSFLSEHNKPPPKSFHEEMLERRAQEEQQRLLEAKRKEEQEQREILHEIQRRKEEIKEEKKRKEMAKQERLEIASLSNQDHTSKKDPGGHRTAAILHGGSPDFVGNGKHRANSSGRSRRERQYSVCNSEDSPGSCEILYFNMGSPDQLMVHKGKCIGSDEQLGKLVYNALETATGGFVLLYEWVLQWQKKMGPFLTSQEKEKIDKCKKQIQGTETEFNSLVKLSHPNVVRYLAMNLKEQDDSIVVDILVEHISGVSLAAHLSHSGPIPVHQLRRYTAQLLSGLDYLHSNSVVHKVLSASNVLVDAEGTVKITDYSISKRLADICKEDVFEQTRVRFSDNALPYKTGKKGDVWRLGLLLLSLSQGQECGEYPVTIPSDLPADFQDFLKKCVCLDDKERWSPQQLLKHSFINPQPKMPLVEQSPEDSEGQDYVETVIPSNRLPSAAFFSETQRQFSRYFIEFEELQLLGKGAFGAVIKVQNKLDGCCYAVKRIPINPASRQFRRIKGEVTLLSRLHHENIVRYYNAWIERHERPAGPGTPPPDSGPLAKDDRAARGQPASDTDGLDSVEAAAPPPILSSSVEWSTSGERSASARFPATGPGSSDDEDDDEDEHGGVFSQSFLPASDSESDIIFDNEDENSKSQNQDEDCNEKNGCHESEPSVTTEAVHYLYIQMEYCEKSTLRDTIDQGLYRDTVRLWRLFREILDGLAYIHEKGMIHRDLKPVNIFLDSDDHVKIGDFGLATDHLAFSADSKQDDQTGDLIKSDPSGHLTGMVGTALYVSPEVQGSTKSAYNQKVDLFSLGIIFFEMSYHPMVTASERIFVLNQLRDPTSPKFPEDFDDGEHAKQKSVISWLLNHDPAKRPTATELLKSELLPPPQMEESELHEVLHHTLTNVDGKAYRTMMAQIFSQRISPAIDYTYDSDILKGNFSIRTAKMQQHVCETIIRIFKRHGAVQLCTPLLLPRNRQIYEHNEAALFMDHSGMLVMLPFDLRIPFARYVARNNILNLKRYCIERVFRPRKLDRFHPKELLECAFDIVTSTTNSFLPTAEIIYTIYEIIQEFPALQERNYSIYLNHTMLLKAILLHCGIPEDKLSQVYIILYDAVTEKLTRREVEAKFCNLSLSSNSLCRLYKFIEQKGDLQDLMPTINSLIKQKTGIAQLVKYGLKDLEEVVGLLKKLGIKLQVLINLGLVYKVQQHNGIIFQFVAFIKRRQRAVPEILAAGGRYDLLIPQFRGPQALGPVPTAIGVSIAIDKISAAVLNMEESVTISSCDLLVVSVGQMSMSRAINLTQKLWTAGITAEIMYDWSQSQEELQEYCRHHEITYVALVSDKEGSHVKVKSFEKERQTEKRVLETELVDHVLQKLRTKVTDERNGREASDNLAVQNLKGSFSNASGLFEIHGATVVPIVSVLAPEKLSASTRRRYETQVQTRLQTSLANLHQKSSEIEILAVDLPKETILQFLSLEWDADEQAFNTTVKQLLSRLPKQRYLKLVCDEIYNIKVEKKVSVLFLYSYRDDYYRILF
assayProtocol: GCN2 Cellular Inhibition Assay (AlphaScreen SureFire P-eIF2α Ser51, borrelidin-treated U2OS cells)
Type: cell-based
conditionNotes: 10 μM borrelidin, 1 h, phosphorylated eIF2α Ser51, read-out: GCN2 Biomarker (IC50)
reportedProperty: IC50

C[C@@H](NS(C)(=O)=O)[C@H]1CN(c2ccnc(-c3cnc4ccc(C(F)(F)F)cn34)n2)CCO1 = 0.5 to 5 µM
CC(=O)N1CCN(c2cccc(-c3cnc4ccc(C(F)(F)F)cn34)n2)CC1 = > 5 µM
C[C@H]1C[C@@H](C(N)=O)CN(c2ccnc(-c3cnc4ccc(C(F)(F)F)cn34)n2)C1 = < 0.5 µM
Cc1[nH]ncc1[C@@H]1CN(c2nccc(-c3cnc4ccc(Cl)cn34)n2)C[C@H](C)O1 = < 0.5 µM
FC(F)(F)c1ccc2ncc(-c3nccc(N4CCN(C[C@@H]5CC56CC6)[C@H](c5cn[nH]c5)C4)n3)n2c1 = < 0.5 µM
CN(CC1CCCN(c2ccnc(-c3cnc4ccc(Cl)cn34)n2)C1)S(C)(=O)=O (stereo not shown) = 0.5 to 5 µM
Cc1[nH]ncc1C1CN(c2ccnc(-c3cnc4ccc(Cl)cn34)n2)CC(C)N1 (stereo not shown) = 0.5 to 5 µM
CS(=O)(=O)C1CC(N2CCN(c3ccnc(-c4cnc5ccc(C(F)(F)F)cn45)n3)C[C@H]2c2cn[nH]c2)C1 (stereo partly shown) = < 0.5 µM
Cc1cc(-c2cnc3ccc(Cl)cn23)nc(N2C[C@@H](c3c[nH]nc3C)O[C@@H](C)C2)n1 = < 0.5 µM
Cc1[nH]ncc1C1N[C@@H](C)CN(c2nccc(-c3cnc4ccc(C(F)(F)F)cn34)n2)[C@H]1C (stereo partly shown) = < 0.5 µM
FC(F)(F)c1ccc2ncc(-c3ccnc(N4CCN(C[C@@H]5CCCOC5)[C@@H](c5cn[nH]c5)C4)n3)n2c1 = < 0.5 µM
C[C@H]1C[C@@H](N=S(C)(C)=O)CN(c2nccc(-c3cnc4ccc(Cl)cn34)n2)C1 (stereo in doubt) = < 0.5 µM
C[C@H]1C[C@@H](N=S(C)(C)=O)CN(c2ccnc(-c3cnc4ccc(C(F)(F)F)cn34)n2)C1 (stereo in doubt) = < 0.5 µM
N#Cc1ccc2ncc(-c3nccc(N4CCOC(c5cn[nH]c5C(F)F)C4)n3)n2c1 (stereo not shown) = < 0.5 µM
CC(C)(C)c1ncc(CN2CCN(c3ccnc(-c4cnc5ccc(C(F)(F)F)cn45)n3)CC2c2cn[nH]c2)[nH]1 (stereo not shown) = < 0.5 µM
COCC1(CN2CCN(c3ccnc(-c4cnc5ccc(C(F)(F)F)cn45)n3)[C@@H](C)[C@@H]2c2cn[nH]c2)CCC1 = 0.5 to 5 µM
NC(=O)[C@H]1CCCN(c2nc(-c3cnc4ccc(C(F)(F)F)cn34)ncc2F)C1 = < 0.5 µM
Cn1cnc(C(=O)N2CCN(c3ccnc(-c4cnc5ccc(C(F)(F)F)cn45)n3)CC2c2cn[nH]c2)c1 (stereo not shown) = 0.5 to 5 µM
Clc1ccc2ncc(-c3nccc(N4CCCC(c5cnoc5)C4)n3)n2c1 (stereo not shown) = 0.5 to 5 µM
O=C(C1CC1(F)F)N1CCN(c2ccnc(-c3cnc4ccc(C(F)(F)F)cn34)n2)CC1c1cn[nH]c1 (stereo not shown) = 0.5 to 5 µM
CC1(C)CC1CN1CCN(c2ccnc(-c3cnc4ccc(C(F)(F)F)cn34)n2)CC1c1cn[nH]c1 (stereo not shown) = < 0.5 µM
CC(C)(C(=O)O)C1CCCN(c2ccnc(-c3cnc4ccc(Cl)cn34)n2)C1 (stereo not shown) = > 5 µM
Clc1ccc2ncc(-c3nccc(N4CC5CC5(c5ccccc5)C4)n3)n2c1 (stereo not shown) = > 5 µM
CC1(C)CN(c2ccnc(-c3cnc4ccc(C(F)(F)F)cn34)n2)CC2(CN(S(C)(=O)=O)C2)O1 = 0.5 to 5 µM
Cn1cc(CN2CCN(c3ccnc(-c4cnc5ccc(C(F)(F)F)cn45)n3)CC2c2cn[nH]c2)cn1 (stereo not shown) = < 0.5 µM
FC(F)(F)c1ccc2ncc(-c3nccc(N4CCOC(c5cn[nH]c5)C4)n3)n2c1 (stereo not shown) [I-45] = < 0.5 µM
C[C@H](NS(C)(=O)=O)[C@@H]1[C@H](C)N(c2ccnc(-c3cnc4ccc(C(F)(F)F)cn34)n2)CCN1C1CC1 = 0.5 to 5 µM
C[C@@H](NS(C)(=O)=O)[C@@H]1CN(c2ccnc(-c3cnc4ccc(C(F)(F)F)cn34)n2)CCO1 (stereo in doubt) = 0.5 to 5 µM
C[C@@H]1CN(c2ccnc(-c3cnc4ccc(Cl)cn34)n2)C[C@@H](C(N)=O)O1 = < 0.5 µM
C[C@@H]1C[C@H](N=S(C)(C)=O)CN(c2ccnc(-c3cnc4ccc(OC(F)(F)F)cn34)n2)C1 = 0.5 to 5 µM
Cc1[nH]ncc1[C@@H]1C[C@H](O)CN(c2ccnc(-c3cnc4ccc(C(F)(F)F)cn34)n2)C1 = < 0.5 µM

###

systemUnderTest: intracellular GCN2 (phosphorylation of the GCN2 substrate eIF2α) (Homo sapiens (Human), UniProt Q9P2K8)
assayProtocol: GCN2 Cellular Inhibition Assay (AlphaScreen SureFire P-eIF2α Ser51, borrelidin-treated U2OS cells)
Type: cell-based
conditionNotes: 10 μM borrelidin, 1 h, phosphorylated eIF2α Ser51, read-out: GCN2 Biomarker (IC50)
IC50 overview
reportedProperty: IC50

OC1(c2ccccc2)CCCN(c2ccnc(-c3cnc4cc(F)c(Cl)cn34)n2)C1 (stereo not shown) = 500 to 5000 nM
Clc1ccc2ncc(-c3nccc(N4CCC(c5cn[nH]c5)C4)n3)n2c1 (stereo not shown) = < 500 nM
Cc1[nH]ncc1[C@@H]1CN(c2nccc(-c3cnc4ccc(C(F)(F)F)cn34)n2)C[C@H](C)O1 = 500 to 5000 nM
C[C@H]1[C@@H](c2cn[nH]c2)N(C2COC2)CCN1c1ccnc(-c2cnc3ccc(C(F)(F)F)cn23)n1 = 500 to 5000 nM
CC1(CN2CCN(c3ccnc(-c4cnc5ccc(C(F)(F)F)cn45)n3)CC2c2cn[nH]c2)CC1 (stereo not shown) = < 500 nM
Cc1n[nH]cc1[C@@H]1CN(c2ccnc(-c3cnc4cc(Cl)c(C(F)(F)F)cn34)n2)C[C@@H](C)O1 = < 500 nM
C[C@H]1C[C@@H](c2cn[nH]c2)CN(c2nccc(-c3cnc4ccc(C5CC5)cn34)n2)C1 = < 500 nM
C[C@@H]1[C@H](CNS(C)(=O)=O)N(C2CC2)[C@H](C)CN1c1ccnc(-c2cnc3ccc(C(F)(F)F)cn23)n1 (stereo in doubt) = 500 to 5000 nM
Cc1noc([C@H]2CN(c3ccnc(-c4cnc5ccc(Cl)cn45)n3)C[C@@H](C)O2)n1 = < 500 nM
FC(F)(F)c1ccc2ncc(-c3nccc(N4CCCC(n5ccc(C(F)(F)F)n5)C4)n3)n2c1 (stereo not shown) = 500 to 5000 nM
CC(=O)N1C(C)CN(c2ccnc(-c3cnc4ccc(Cl)cn34)n2)CC1c1cn[nH]c1 (stereo not shown) = 500 to 5000 nM
CC1CC(N=S(C)(C)=O)CN(c2ccnc(-c3cnc4ccc(C(F)(F)F)cn34)n2)C1 (stereo not shown) [I-31] = 500 to 5000 nM
Cc1cnc(N2C[C@H](C)C[C@@H](c3cn[nH]c3)C2)nc1-c1cnc2ccc(Cl)cn12 (stereo in doubt) = < 500 nM
CC(C)(C)OC(=O)N1CC2(C1)OCCN(c1ccnc(-c3cnc4ccc(C(F)(F)F)cn34)n1)C2(C)C = > 5000 nM
C[C@H]1CN(c2nccc(-c3cnc4cc(F)c(Cl)cn34)n2)C[C@H](c2cn[nH]c2)O1 = 500 to 5000 nM
CC1CC(N=S(C)(C)=O)CN(c2ccnc(-c3cnc4ccc(C(F)(F)F)cn34)n2)C1 (stereo not shown) [I-32] = 500 to 5000 nM

###

IC50 overview
systemUnderTest: intracellular GCN2 (phosphorylation of the GCN2 substrate eIF2α) (Homo sapiens (Human), UniProt Q9P2K8)
assayProtocol: GCN2 Cellular Inhibition Assay (AlphaScreen SureFire P-eIF2α Ser51, borrelidin-treated U2OS cells)
Type: cell-based
conditionNotes: 10 μM borrelidin, 1 h, phosphorylated eIF2α Ser51, read-out: GCN2 Biomarker (IC50)
reportedProperty: IC50

FC(F)(F)c1ccc2ncc(-c3nccc(N4CCN(C[C@H]5CC56CC6)[C@@H](c5cn[nH]c5)C4)n3)n2c1 = < 500 nM
C[C@H]1C[C@@H](c2cn[nH]c2)CN(c2nccc(-c3cnc4ccc(C(F)(F)F)cn34)n2)C1 [I-137] = < 500 nM
Cc1cc(-c2cnc3ccc(Cl)cn23)nc(N2C[C@@H](C)O[C@H](c3cn[nH]c3C)C2)n1 = 500 to 5000 nM
Cc1[nH]ncc1[C@@H]1[C@@H](C)N(c2ccnc(-c3cnc4ccc(C(F)(F)F)cn34)n2)CCN1C1COC1 = 500 to 5000 nM
FC(F)(F)c1ccc2ncc(-c3nccc(N4CCOC(c5cn[nH]c5)C4)n3)n2c1 (centres unmarked) [I-2] = < 500 nM
Cc1oncc1[C@@H]1CN(c2ccnc(-c3cnc4ccc(C(F)(F)F)cn34)n2)C[C@@H](C)O1 = 500 to 5000 nM
Fc1ccc(CN2CCN(c3ccnc(-c4cnc5ccc(C(F)(F)F)cn45)n3)CC2c2cn[nH]c2)cc1F (centres unmarked) = < 500 nM
CC1(C)CN(c2ccnc(-c3cnc4ccc(C(F)F)cn34)n2)CC2(CN(S(C)(=O)=O)C2)O1 = > 5000 nM
C[C@@H]1C[C@H](N=S(C)(C)=O)CN(c2ccnc(-c3cnc4ccc(OC(F)F)cn34)n2)C1 = 500 to 5000 nM
O=C1NCC2CN(c3ccnc(-c4cnc5ccc(C(F)(F)F)cn45)n3)CCN12 (centres unmarked) [I-6] = 500 to 5000 nM
C[C@@H]1CN(c2nccc(-c3cnc4ccc(C(F)(F)F)cn34)n2)C[C@H](c2cn[nH]c2)O1 [I-118] = < 500 nM
NC(=O)C1(O)CCCN(c2ccnc(-c3cnc4ccc(C(F)(F)F)cn34)n2)C1 (centres unmarked) = 500 to 5000 nM
Cc1[nH]ncc1[C@H]1CN(c2ccnc(-c3cnc4cc(F)c(Cl)cn34)n2)C[C@@H](C)O1 = < 500 nM
FC(F)(F)c1ccc2ncc(-c3nccc(N4CCNC(c5cn[nH]c5)C4)n3)n2c1 (centres unmarked) = < 500 nM
C[C@@H]1CCN(c2ccnc(-c3cnc4ccc(C(F)(F)F)cn34)n2)CC1F (stereo in doubt) = 500 to 5000 nM
Cc1cnc(N2C[C@@H](C)C[C@H](c3cn[nH]c3)C2)nc1-c1cnc2ccc(Cl)cn12 (stereo in doubt) = < 500 nM
Cc1[nH]ncc1[C@@H]1CN(c2nccc(-c3cnc4ccc(Cl)cn34)n2)C[C@@H](C)O1 (stereo in doubt) = < 500 nM
FC(F)c1ccc2ncc(-c3nccc(N4CCOC(c5cn[nH]c5)C4)n3)n2c1 (centres unmarked) = < 500 nM
Cc1[nH]ncc1[C@H]1[C@@H](C)N(c2ccnc(-c3cnc4ccc(C(F)(F)F)cn34)n2)CCN1C1COC1 = < 500 nM
Cc1cc(-c2cnc3ccc(Cl)cn23)nc(N2C[C@@H](C)O[C@@H](c3c[nH]nc3C)C2)n1 = < 500 nM
CC1(C)C[C@@H]1CN1CCN(c2ccnc(-c3cnc4ccc(C(F)(F)F)cn34)n2)C[C@@H]1c1cn[nH]c1 = 500 to 5000 nM
NC(=O)C1(C2CCCN(c3ccnc(-c4cnc5ccc(Cl)cn45)n3)C2)CC1 (centres unmarked) = 500 to 5000 nM
C[C@@H]1C[C@H](N=S(C)(C)=O)CN(c2ccnc(-c3cnc4ccc(Oc5ccccc5)cn34)n2)C1 = 500 to 5000 nM
C[C@@H]1C[C@H](N=S(C)(C)=O)CN(c2ccnc(-c3cnc4cc(Cl)c(Cl)cn34)n2)C1 = 500 to 5000 nM
CS(=O)(=O)N1CC2(CCCN(c3ccnc(-c4cnc5ccc(C(F)(F)F)cn45)n3)C2)C1 = 500 to 5000 nM
FC(F)(F)c1ccc2ncc(-c3nccc(N4CCCC5(CNC5)C4)n3)n2c1 = > 5000 nM
FC(F)C1CN(c2ccnc(-c3cnc4ccc(C(F)(F)F)cn34)n2)CCO1 (centres unmarked) = 500 to 5000 nM
CC1CC(C(N)=O)CN(c2ccnc(-c3cnc4ccc(C(F)(F)F)cn34)n2)C1 (centres unmarked) = < 500 nM
CS(=O)(=O)NCC1CCCN(c2nc(-c3cnc4ccc(C(F)(F)F)cn34)ns2)C1 (centres unmarked) = 500 to 5000 nM
C[C@H]1CN(c2ccnc(-c3cnc4ccc(Cl)cn34)n2)C[C@@H](c2cn[nH]c2F)O1 = < 500 nM
NC(=O)C1CN(c2ccnc(-c3cnc4ccc(C(F)(F)F)cn34)n2)CCN1C1COC1 (centres unmarked) = 500 to 5000 nM
FC(F)(F)c1ccc2ncc(-c3nccc(N4CCN(C[C@@H]5CC56CC6)[C@@H](c5cn[nH]c5)C4)n3)n2c1 = < 500 nM
